# measured target: Human MAO-B (Homo sapiens)
# assay text: Inhibition of recombinant MAO-B (Amplex Red)
# Type: biochemical
# run conditions: 50 μM benzylamine
observable: pIC50
Schema: pIC50 number; meaning minus log10 of the concentration expressed in molar units.

INPUT: I have this compound here, NC/C(=C/F)CCc1ccc(F)cc1 [Mofegiline, reference compound] , and I need its recorded pIC50.
OUTPUT: 8.40

====

ED50 listing for selected compounds.
# measured target: SSAO/VAP-1 (Mus musculus)
# Construct: the genital fat was excised and frozen; The tissue was homogenized; from tissue; host or cells: genital fat of BALB/C mice
# Sequence (O70423 1-765): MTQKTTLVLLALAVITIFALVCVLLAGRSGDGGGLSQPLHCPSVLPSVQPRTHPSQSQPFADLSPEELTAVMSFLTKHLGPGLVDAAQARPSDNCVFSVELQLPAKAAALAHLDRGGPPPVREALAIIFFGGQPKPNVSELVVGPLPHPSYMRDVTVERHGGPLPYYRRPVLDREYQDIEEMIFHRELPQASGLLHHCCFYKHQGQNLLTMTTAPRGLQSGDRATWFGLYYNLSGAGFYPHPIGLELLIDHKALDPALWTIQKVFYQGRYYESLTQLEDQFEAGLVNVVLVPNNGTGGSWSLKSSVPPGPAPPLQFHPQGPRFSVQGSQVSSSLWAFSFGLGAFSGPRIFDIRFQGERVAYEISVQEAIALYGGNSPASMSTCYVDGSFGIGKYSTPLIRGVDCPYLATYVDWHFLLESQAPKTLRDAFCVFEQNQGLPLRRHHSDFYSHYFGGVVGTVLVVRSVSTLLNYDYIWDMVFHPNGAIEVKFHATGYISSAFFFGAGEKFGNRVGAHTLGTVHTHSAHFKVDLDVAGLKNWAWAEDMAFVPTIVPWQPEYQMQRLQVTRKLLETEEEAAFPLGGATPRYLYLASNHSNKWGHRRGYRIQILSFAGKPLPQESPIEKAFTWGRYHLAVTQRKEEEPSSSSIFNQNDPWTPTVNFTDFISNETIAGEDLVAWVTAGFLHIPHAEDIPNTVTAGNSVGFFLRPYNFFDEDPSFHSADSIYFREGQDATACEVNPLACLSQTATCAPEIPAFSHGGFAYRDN
# assay text: In vivo inhibition of SSAO/VAP-1 activity in mouse genital fat
# Design: species or system BALB/C mice
# run conditions: ip, male BALB/C mice, intraperitoneal, genital fat SSAO activity two hours after administration, read-out: Male Mice ED50 [ip]

Here are 4 compounds together with their reported answers.
compound: C[C@H](NS(=O)(=O)c1ccc(OC/C(F)=C\CN)cc1)c1ccccc1.Cl
ED50: < 50 mg/kg
--
compound: Cc1nc2cc(OC/C(F)=C\CN)ccc2s1.Cl
ED50: < 50 mg/kg
--
compound: CS(=O)(=O)c1ccc(OC/C(F)=C\CN)cc1.Cl
ED50: < 100 mg/kg
--
compound: Cl.NC/C=C(/F)COc1ccc(S(=O)(=O)Cc2ccccc2)cc1
ED50: < 50 mg/kg

INPUT: I have this compound here, Cl.NC/C=C(/F)COc1ccc(C(=O)NC2CCCC2)cc1 , and I need its recorded ED50.
OUTPUT: < 50 mg/kg

INPUT: Now consider CC(C)S(=O)(=O)c1ccc(OC/C(F)=C\CN)cc1.Cl and answer again.
OUTPUT: < 150 mg/kg

INPUT: Now consider NC/C(=C/F)CCc1ccc(F)cc1 [Mofegiline, reference compound] and answer again.
OUTPUT: < 1 mg/kg

====

# measured target: UniProt P27338
# Sequence (P27338 1-520): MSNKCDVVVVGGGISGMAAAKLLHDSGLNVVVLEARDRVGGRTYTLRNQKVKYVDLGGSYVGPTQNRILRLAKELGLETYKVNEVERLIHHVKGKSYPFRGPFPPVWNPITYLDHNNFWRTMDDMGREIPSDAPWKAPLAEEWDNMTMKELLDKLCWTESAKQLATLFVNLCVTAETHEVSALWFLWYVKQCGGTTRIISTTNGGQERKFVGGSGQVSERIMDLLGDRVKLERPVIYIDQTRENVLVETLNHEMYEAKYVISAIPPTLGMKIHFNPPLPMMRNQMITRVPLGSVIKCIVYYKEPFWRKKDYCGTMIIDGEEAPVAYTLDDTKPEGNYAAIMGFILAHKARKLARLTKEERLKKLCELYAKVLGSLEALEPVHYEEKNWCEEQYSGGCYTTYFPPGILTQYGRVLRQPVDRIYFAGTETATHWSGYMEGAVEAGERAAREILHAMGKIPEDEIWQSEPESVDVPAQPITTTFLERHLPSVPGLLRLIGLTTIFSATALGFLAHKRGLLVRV
# assay text: Inhibition of recombinant MAO-B (Amplex Red)
# Type: biochemical
# run conditions: 30 min at 37° C. preincubation, 50 μM benzylamine
Counter-ions that a name gives are not always drawn.
IC50 listing for selected compounds.

INPUT: Field: IC50 (UniProt P27338). Entry: CC(C)N(C(=O)c1ccc(OC/C(F)=C\CN)cc1)C(C)C [hydrochloride]
OUTPUT: < 100 µM

INPUT: Now consider CS(=O)(=O)c1ccc(OC/C(F)=C\CN)cc1.Cl [hydrochloride] and answer again.
OUTPUT: < 100 µM

INPUT: Now consider NC/C=C(/F)COc1ccc(C(=O)NC2CCCCC2)cc1 [hydrochloride] and answer again.
OUTPUT: < 1 µM

INPUT: Now consider NC/C=C(/F)COc1ccc([N+](=O)[O-])cc1 [hydrochloride] and answer again.
OUTPUT: < 1 µM

INPUT: Now consider NC/C=C(/F)COc1ccccc1 [hydrochloride] and answer again.
OUTPUT: < 1 µM

INPUT: Now consider NC/C=C(/F)COc1cccc(C(F)(F)F)c1 [hydrochloride] and answer again.
OUTPUT: < 1 µM

INPUT: Now consider C[C@H](NS(=O)(=O)c1ccc(OC/C(F)=C\CN)cc1)c1ccccc1.Cl and answer again.
OUTPUT: < 1 µM

INPUT: Now consider NC/C=C(/F)COc1ccc(S(=O)(=O)N2CCOCC2)cc1 [hydrochloride] and answer again.
OUTPUT: < 10 µM

====

IC50 listing for selected compounds.
# measured target: Mouse SSAO/VAP-1 (Mus musculus)
# Construct: Adipocytes were used as an SSAO source either as adherent cells or as a homogenate; endogenous in cells; host or cells: 3T3-L1 murine fibroblasts (ATCC) differentiated into adipocytes
# assay text: Inhibition of amine oxidase activity of mouse SSAO/VAP-1 (3T3-L1 adipocytes, Amplex Red)
# Type: biochemical
# run conditions: 3T3-L1 adipocyte SSAO, 30 min at 37° C. preincubation, 40 μM benzylamine
Where a name gives a salt, the structure may show the parent alone.

Here are 5 compounds together with their reported answers.
compound: C[C@H](NS(=O)(=O)c1ccc(OC/C(F)=C\CN)cc1)c1ccccc1.Cl
measured target: Mouse SSAO/VAP-1 (Mus musculus)
IC50: < 1 µM
//
compound: NC/C=C(\Cl)CCc1ccccc1 [hydrochloride, reference compound]
measured target: Mouse SSAO/VAP-1 (Mus musculus)
IC50: < 10 µM
//
compound: NC/C=C(/F)COc1ccccc1 [hydrochloride]
measured target: Mouse SSAO/VAP-1 (Mus musculus)
IC50: < 10 µM
//
compound: Cc1nc2cc(OC/C(F)=C\CN)ccc2s1.Cl [hydrochloride]
measured target: Mouse SSAO/VAP-1 (Mus musculus)
IC50: < 1 µM
//
compound: NC/C=C(/F)COc1ccc(S(=O)(=O)N2CCOCC2)cc1 [hydrochloride]
measured target: Mouse SSAO/VAP-1 (Mus musculus)
IC50: < 10 µM

Shifting focus to the compound that follows.
INPUT: I have this compound here, NC/C=C(/F)COc1ccc(C(=O)NC2CCCCC2)cc1 [hydrochloride] , and I need its recorded IC50.
OUTPUT: < 1 µM

====

IC50 listing for selected molecules.
# measured target: Human MAO-B (Homo sapiens, UniProt P27338)
# assay text: Inhibition of recombinant MAO-B (Amplex Red)
# Assay type: biochemical
# run conditions: 30 min at 37° C. preincubation, 50 μM benzylamine
Structures can show the parent of a compound that is named as a salt.

Here are 2 molecules together with their reported answers.
molecule: NC/C=C(/F)COc1ccc(C(=O)NCc2ccccc2)cc1 [hydrochloride]
result: < 1000 nM
--
molecule: NC/C=C(/F)COc1ccc(Cl)cc1Cl [hydrochloride]
result: < 1000 nM

Shifting focus to the molecule that follows.
INPUT: I have this molecule here, Cc1nc2cc(OC/C(F)=C\CN)ccc2s1.Cl [hydrochloride] , and I need its recorded IC50.
OUTPUT: < 100000 nM

====

pIC50 listing for selected compounds.
# measured target: Mouse SSAO/VAP-1 (Mus musculus, UniProt O70423)
# Construct: Adipocytes were used as an SSAO source either as adherent cells or as a homogenate; endogenous in cells; host or cells: 3T3-L1 murine fibroblasts (ATCC) differentiated into adipocytes
# assay text: Inhibition of amine oxidase activity of mouse SSAO/VAP-1 (3T3-L1 adipocytes, Amplex Red)
# Assay type: biochemical
# run conditions: 3T3-L1 adipocyte SSAO, 30 min at 37° C. preincubation, 40 μM benzylamine
pIC50: −log10 of the molar value. Counter-ions that a name gives are not always drawn.

Here are 2 compounds together with their reported answers.
compound: CC(C)N(C(=O)c1ccc(OC/C(F)=C\CN)cc1)C(C)C [hydrochloride]
pIC50: > 4.00
//
compound: CS(=O)(=O)c1ccc(OC/C(F)=C\CN)cc1.Cl [hydrochloride]
pIC50: > 6.00

INPUT: Field: pIC50 (Mouse SSAO/VAP-1 (Mus musculus, UniProt O70423)). Entry: NC/C=C(/F)COc1ccc(C(=O)NCc2ccccc2)cc1 [hydrochloride]
OUTPUT: > 6.00

INPUT: Now consider NC/C=C(\Cl)Cc1cc(F)cc(F)c1 [hydrochloride, reference compound] and answer again.
OUTPUT: > 6.00

INPUT: Now consider NC/C=C(/F)COc1ccc(Cl)cc1Cl [hydrochloride] and answer again.
OUTPUT: > 5.00

INPUT: Now consider NC/C=C(/F)COc1ccc([N+](=O)[O-])cc1 [hydrochloride] and answer again.
OUTPUT: > 5.00

INPUT: Now consider NC/C=C(/F)COc1cccc(C(F)(F)F)c1 [hydrochloride] and answer again.
OUTPUT: > 4.00
